- Target Of Assay: Ataxin-2 (Homo sapiens) (UniProt Q99700)
- Sequence (Q99700 whole entry): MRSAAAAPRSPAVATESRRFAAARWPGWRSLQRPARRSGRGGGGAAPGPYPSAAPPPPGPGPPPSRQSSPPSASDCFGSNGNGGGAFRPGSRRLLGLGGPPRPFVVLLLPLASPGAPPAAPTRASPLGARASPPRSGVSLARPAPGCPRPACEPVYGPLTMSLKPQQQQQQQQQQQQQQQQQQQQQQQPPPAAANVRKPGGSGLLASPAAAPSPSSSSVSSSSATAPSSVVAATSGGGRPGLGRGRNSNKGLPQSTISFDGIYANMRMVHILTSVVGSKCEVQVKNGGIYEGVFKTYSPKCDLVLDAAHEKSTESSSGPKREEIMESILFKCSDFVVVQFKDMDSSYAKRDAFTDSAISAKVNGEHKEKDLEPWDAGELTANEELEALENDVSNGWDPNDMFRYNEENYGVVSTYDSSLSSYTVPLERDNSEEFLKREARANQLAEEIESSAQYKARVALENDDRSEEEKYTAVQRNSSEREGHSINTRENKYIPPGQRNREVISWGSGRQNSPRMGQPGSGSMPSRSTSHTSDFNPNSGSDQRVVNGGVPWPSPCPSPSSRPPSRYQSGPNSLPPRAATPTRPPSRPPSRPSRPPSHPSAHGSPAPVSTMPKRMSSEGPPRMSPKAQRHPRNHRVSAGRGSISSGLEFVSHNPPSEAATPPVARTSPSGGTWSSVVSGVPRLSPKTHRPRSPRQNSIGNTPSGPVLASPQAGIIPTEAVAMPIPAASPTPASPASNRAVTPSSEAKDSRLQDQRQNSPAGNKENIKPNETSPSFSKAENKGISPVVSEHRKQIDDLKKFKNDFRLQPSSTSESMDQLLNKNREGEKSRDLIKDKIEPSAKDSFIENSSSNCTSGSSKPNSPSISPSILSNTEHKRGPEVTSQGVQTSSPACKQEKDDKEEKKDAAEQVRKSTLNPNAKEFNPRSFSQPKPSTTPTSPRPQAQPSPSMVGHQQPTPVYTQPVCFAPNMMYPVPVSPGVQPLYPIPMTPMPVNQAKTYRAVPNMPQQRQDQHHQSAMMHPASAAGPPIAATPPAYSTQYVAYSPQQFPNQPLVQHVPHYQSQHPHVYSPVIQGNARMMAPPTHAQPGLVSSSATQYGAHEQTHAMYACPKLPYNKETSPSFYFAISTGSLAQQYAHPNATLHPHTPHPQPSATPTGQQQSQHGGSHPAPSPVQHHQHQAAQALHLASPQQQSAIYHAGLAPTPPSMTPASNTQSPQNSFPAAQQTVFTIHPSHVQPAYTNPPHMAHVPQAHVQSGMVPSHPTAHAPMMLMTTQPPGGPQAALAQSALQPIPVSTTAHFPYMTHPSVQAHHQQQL
- Test Details: qHTS for Inhibitors of ATXN expression.
- Format: functional
Out of some 400,000 compounds screened, about 2,100 (0.53%) were called active. Inconclusive results (about 14%) are left out. The rule behind the calls is not given here. This excerpt belongs to a sample that is enriched for actives.
The reply should name one outcome from YES (active), NO (inactive)

Field: example entries. Status: answers known.
- Compound: "Nc1c(C(=O)CSc2ncccn2)c(=O)[nH]c(=O)n1C1CC1"
  Target Of Assay: "Ataxin-2 (Homo sapiens) (UniProt Q99700)"
  Qualitative Label: "NO"
- Compound: "Cc1cc(N(CCO)CCO)ccc1C(c1ccc(N(CCO)CCO)cc1C)c1ccccc1Cl"
  Target Of Assay: "Ataxin-2 (Homo sapiens) (UniProt Q99700)"
  Qualitative Label: "YES"
- Compound: "COc1ccccc1C1C2=C(CC(C)(C)CC2=O)N(CC(=O)O)C2=C1C(=O)CC(C)(C)C2"
  Target Of Assay: "Ataxin-2 (Homo sapiens) (UniProt Q99700)"
  Qualitative Label: "NO"

Shifting focus to the compound that follows.
GET /call?item= COc1cccc(C2C=C(c3cccs3)Nc3ncnn32)c1OC (stereo not drawn) returns the recorded outcome of this test.
NO

###

- Target Of Assay: Ataxin-2 (Homo sapiens) (UniProt Q99700)
- Test Details: qHTS for Inhibitors of ATXN expression.
- Type: functional
Among all 400,000 compounds or so, about 2,100 (0.53%) were called active. Roughly 14% stayed inconclusive and do not appear here. How the calls were made is not given here. For the sample, actives were picked, then their nearest neighbours and some compounds at random.
The reply should name one outcome from Yes for active, No for inactive

Field: example entries. Status: answers known.
- Molecule: "CN1C(=O)c2ccc(NC(=O)c3ccc(Cl)cc3Cl)cc2C1=O"
  Target Of Assay: "Ataxin-2 (Homo sapiens) (UniProt Q99700)"
  Qualitative Label: "No"
- Molecule: "C[N+](C)(C)CCC(=O)N1C/C(=C/c2ccccc2)C(=O)/C(=C\\c2ccccc2)C1"
  Target Of Assay: "Ataxin-2 (Homo sapiens) (UniProt Q99700)"
  Qualitative Label: "Yes"
- Molecule: "COc1cc2c(cc1OC)C(SC)=NC1(CCCC1)C2"
  Target Of Assay: "Ataxin-2 (Homo sapiens) (UniProt Q99700)"
  Qualitative Label: "Yes"

GET /call?item= CCOCCCn1c(=N)c(C(=O)NCC2CCCO2)cc2c(=O)n3cccc(C)c3nc21 (centres undefined) returns the recorded outcome of this test.
No

GET /call?item= Cn1cc(CN2CCc3c([nH]c4ccccc34)C2C2CCCCC2)cn1 (centres undefined) returns the recorded outcome of this test.
No

GET /call?item= COc1ccc(CN2COc3ccc4c(-c5ccccc5)cc(=O)oc4c3C2)cc1OC returns the recorded outcome of this test.
No

GET /call?item= C[C@H](CO)N1C[C@H](C)[C@@H](CN(C)Cc2ccc(Cl)c(Cl)c2)Oc2c(NC(=O)C3CC3)cccc2C1=O returns the recorded outcome of this test.
Yes

GET /call?item= O=C(COC(=O)CCS(=O)(=O)c1ccccc1)Nc1ccccc1 returns the recorded outcome of this test.
No

GET /call?item= COc1ccc([C@H]2/C=C\CN(C(=O)CC(C)(C)C)[C@@H](C)C(=O)N2Cc2ccc(F)cc2)cc1 returns the recorded outcome of this test.
Yes

GET /call?item= CCCCCc1cc(=O)oc2c(C(CCN3CCCC3)c3cc(OC)c(OC)c(OC)c3)c(OC)cc(OC)c12 (centres undefined) returns the recorded outcome of this test.
Yes

GET /call?item= CCCN1C2CCCC1CC(N=C(S)Nc1cccc(C)c1)C2 (centres undefined) returns the recorded outcome of this test.
No

GET /call?item= COc1ccc(C(CCN2CCCC(C)C2)c2c(OC)cc(OC)c3c(-c4ccccc4)cc(=O)oc23)cc1 (centres undefined) returns the recorded outcome of this test.
Yes

GET /call?item= O=C(c1cc2c(=O)n3ccccc3nc2s1)N1CCN(Cc2ccc3c(c2)OCO3)CC1 returns the recorded outcome of this test.
No

GET /call?item= COc1cc2oc(=O)cc(-c3ccc(-c4ccc(N(C)C)cc4)cc3)c2c(OC)c1OC returns the recorded outcome of this test.
No

###

- Target Of Assay: Ataxin-2 (Homo sapiens)
- Test Details: qHTS for Inhibitors of ATXN expression.
- Assay type: functional
Out of some 400,000 compounds screened, about 2,100 (0.53%) were called active. About 14% were inconclusive and are not listed. The rule behind the calls is not given here. Only a selection was taken, and actives are over-represented in it overall.
The reply should name one outcome from Y (active), N (inactive)

- Compound: "SC1=NCN(Cc2ccco2)CN1"
  Qualitative Label: "N"
- Compound: "O=c1c(Cl)c(Cl)cnn1Cc1ccc(F)cc1"
  Qualitative Label: "Y"
- Compound: "O=C(c1ccc(F)cc1)C1CCN(S(=O)(=O)c2ccccc2)CC1"
  Qualitative Label: "N"

GET /call?item= Cc1ccc(Cn2ncn(-c3ccccc3)c2=O)cc1 returns the recorded outcome of this test.
N

GET /call?item= CC(C)(C)c1cc(C(=O)NN)n(Cc2ccc(F)cc2)n1 returns the recorded outcome of this test.
N

GET /call?item= CN1CCN(c2nc(-c3ccc(Cl)cc3)nc3ccccc23)CC1 returns the recorded outcome of this test.
N

GET /call?item= O=S(=O)([N-]c1nc2ccccc2nc1-[n+]1ccn(Cc2ccccc2)c1)c1ccc(Cl)cc1 returns the recorded outcome of this test.
N

GET /call?item= N=C1NC(=O)/C(=C/c2ccc(Br)cc2)S1 returns the recorded outcome of this test.
N

GET /call?item= COc1ccc(-c2cc(C(F)(F)F)n3nc(C(=O)NCCN4CCOCC4)cc3n2)cc1 returns the recorded outcome of this test.
N

GET /call?item= Cc1[nH]c2ccccc2c1/C=C/c1nc2ccccc2c(=O)n1CCO returns the recorded outcome of this test.
N

GET /call?item= O=C(Nc1cccc(Cl)c1)Nc1nnc(-c2ccncc2)s1 returns the recorded outcome of this test.
Y

###

- Target Of Assay: Ataxin-2 (Homo sapiens)
- Test Details: qHTS for Inhibitors of ATXN expression.
- Type: functional
Among all 400,000 compounds or so, about 2,100 (0.53%) were called active. Not shown: some 14% with an inconclusive outcome. No rule for the calls is given here. What follows is part of a selection rich in actives, with near analogues and random picks from the rest.
The reply should name one outcome from True = active, False = inactive

- Molecule: "Cc1nc2c(sc(=S)n2Cc2ccco2)c(=O)n1CC(=O)Nc1ccc(F)cc1"
  Qualitative Label: "True"
- Molecule: "COc1cc2nc(/C=C/c3ccc(N(C)C)cc3)sc2cc1SC"
  Qualitative Label: "False"
- Molecule: "Cn1c(/C=C(\\C#N)C(N)=S)ccc1-c1ccc(Br)cc1"
  Qualitative Label: "True"
- Molecule: "N#Cc1ccc2sn(-c3ccccc3)c(=O)c2c1"
  Qualitative Label: "True"
- Molecule: "COc1ccc(-c2noc(CSc3nnc(Cc4ccccc4)n3-c3cccc(C)c3)n2)cc1"
  Qualitative Label: "True"

GET /call?item= Cc1nc2ccc(NS(=O)(=O)c3c(F)cc(F)cc3Br)cc2s1 returns the recorded outcome of this test.
False

GET /call?item= COC(=O)c1ccc(COc2cccn3c(N(C)C(=O)CCC4CCCC4)c(C)nc23)cc1 returns the recorded outcome of this test.
True

###

- Target Of Assay: Ataxin-2 (Homo sapiens) (UniProt Q99700)
- Test Details: qHTS for Inhibitors of ATXN expression.
- Format: functional
About 2,100 (0.53%) of roughly 400,000 compounds were called active. Another 14% or so got no clear call; they are omitted. The rule behind the calls is not given here. This excerpt belongs to a sample that is enriched for actives.
The reply should name one outcome from active, inactive

GET /call?item= Oc1nc2ccccc2nc1-c1nnnn1Cc1ccccc1 returns the recorded outcome of this test.
inactive

GET /call?item= CCO/C(O)=C(/Sc1nc(-c2ccccc2)cc(-c2ccccc2)c1C#N)C(C)=O returns the recorded outcome of this test.
inactive

###

- Target Of Assay: Ataxin-2 (Homo sapiens) (UniProt Q99700)
- Test Details: qHTS for Inhibitors of ATXN expression.
- Type: functional
In all, about 400,000 compounds went through this assay and about 2,100 (0.53%) were called active. Another 14% or so got no clear call; they are omitted. No rule for the calls is given here. The sample holds actives, similar compounds and a random draw of the others, so the mix is not that of the screen.
The reply should name one outcome from active, inactive

Field: example entries. Status: answers known.
- Molecule: "C#CCOCCOCCOCCNc1nc(N2CCN(C(=O)CCCCCCCCCCNC(=O)[C@@H](CCC(=O)O)n3cc(CCCCCN)nn3)CC2)nc(N2CCN(C(=O)CCCCCCCCCCNC(=O)[C@H](CCCCN)n3cc(C[C@@H](C)CC)nn3)CC2)n1"
  Qualitative Label: "active"
- Molecule: "COCc1cc(C)nc2oc(C(=O)c3ccccc3)c(N)c12"
  Qualitative Label: "inactive"

Shifting focus to the molecule that follows.
GET /call?item= COc1ccc(/C=N/NC(=O)c2ccncc2)cc1CN1CCOCC1 returns the recorded outcome of this test.
inactive

Hey, just so you know, these numbers are from ChEMBL document CHEMBL1201862.
